Test system: HL-60(TB) leukemia
Protocol Text: NCI tumour cell line growth inhibition, 48 h
Please go through the items and note down their TGI.

Kindly note: HL-60(TB) leukemia, COC(=O)/C(=N/NC(=O)C[N+](C)(C)C)C(C(=O)OC)C(=O)C(=O)Nc1ccc(F)cc1 (stereo not drawn) , TGI value reported: > 100 µM

Hey, HL-60(TB) leukemia data for COc1ccc(Nc2nc3c([nH]2)c(=O)n(C)c(=O)n3C)cc1 : TGI came out at > 10 µM

Bench note, HL-60(TB) leukemia: CCN1CCC(O)(C(C(=O)O)c2ccccc2)CC1 (stereo not drawn) , TGI reads > 100 µM

* * *

What TGI was measured for each of the following?
Test system: SF-268 CNS
Protocol Text: NCI tumour cell line growth inhibition, 48 h

Sample COC12C=C(C)C(CC1)CC2C(=O)O (centres undefined) , system: SF-268 CNS. Its TGI is > 100 µM

Item CC(=O)OCC(OC(C)=O)C1C[C@H]2O[C@@H]3[C@H](C[C@H]2O1)O[C@@]1(C[C@@H]3C)C[C@H](C)[C@@H]2O[C@]3(C[C@@H]2O1)C[C@H]1O[C@H]2[C@H](C)[C@H]4OC(=O)CC5CC[C@H]6OC7[C@H]8O[C@]9(CC[C@H]%10CC(O)(CO)[C@H](CC[C@H]%11C[C@@H](C)C(O)(CO)C(C[C@@H]4O[C@H]2C[C@H]1O3)O%11)O%10)CC8O[C@@H]7[C@@H](O9)[C@H]6O5 (some centres undefined) was tested on SF-268 CNS; the reported TGI is > 1 µM

COC(=O)/C=C/c1cc(OC)c(OC)c(OC)c1 tested on SF-268 CNS gave TGI: > 100 µM

Param item: CCCn1cnc2c(SCc3ccccc3Cl)nc(N)nc21 ; param system: SF-268 CNS; output TGI: 92.7 µM

Tested on SF-268 CNS, the item CC(=O)CNC(=O)OC(C)(C)C showed TGI equal to > 100 µM

With SF-268 CNS as the test system, C=C1C(=O)O[C@H]2[C@H]1CC/C(COC(=O)c1ccc3ccccc3c1)=C\CC[C@@]1(C)O[C@@H]21 showed TGI of 2.75 µM

Measured TGI (SF-268 CNS), entry CCC(=O)Oc1c2ccsc2c(OC(=O)CC)c2ccsc12 : 2.29 µM

Item Nc1nc(Cl)c2ncn(Cc3ccc(C45CC6CC(CC(C6)C4)C5)c(O)c3)c2n1 ; assay system SF-268 CNS; TGI reported as 21.4 µM

The reported SF-268 CNS TGI of COc1cc(C2=C(c3ccccc3)COC2=O)cc(OC)c1OC is > 76.5 µM

# value of TGI, SF-268 CNS, item O=c1[nH]ncc(Br)c1Br = 12.6 µM

Measured on SF-268 CNS, Cc1nn(-c2cc(Cl)ccc2[N+](=O)[O-])c(C)c1Cl has a documented TGI of > 100 µM

Record COc1cc2c(/C=C3/C(=O)Nc4ccccc43)c(Cl)[nH]c2cc1C / SF-268 CNS, TGI recorded as 18.5 µM

TGI value, target or system SF-268 CNS, for COC(=O)C1=Nc2c(C)nn(-c3ccccc3)c2N=C(c2ccc([N+](=O)[O-])cc2)C1 : > 10 µM

Reading of TGI for NC1CNC(=O)c2c(Cl)sc(Cl)c21 (centres undefined) with SF-268 CNS: > 100 µM

COc1ccc(/C=C/CN(C)CCc2ccccc2)cc1OC on SF-268 CNS gives TGI = > 100 µM

TGI value, target or system SF-268 CNS, for Cn1c(=O)c2[nH]c(SCc3ccccn3)nc2n(C)c1=S : > 100 µM

The compound O=[N+]([O-])c1ccc(NC(=S)N=Nc2c(O)[nH]c3ccc(Br)cc23)cc1 , when measured on SF-268 CNS, yielded TGI of 26.1 µM

# value of TGI, SF-268 CNS, item N#Cc1cc2c(cc1Cl)Sc1nccn1S2(=O)=O = 13 µM

Entry Cc1ccc(NC(=O)c2cccc(N(C)C)c2)cc1NC(=O)c1ccc(O)cc1 , tested on SF-268 CNS, has a reported TGI of > 100 µM

Here COC1/C=C\C=C(/C)C(=O)NC2=CC(=O)C(=O)C(=C2O)CC(C)CC(OC)C(O)C(C)/C=C(\C)C1OC(N)=O (centres undefined) was tested on SF-268 CNS, and its TGI came to > 58.9 µM

Oc1ccc2ccccc2c1N=Nc1nccs1 tested on SF-268 CNS gave TGI: > 100 µM

Record for Cc1cc2ncc3c(=O)n(NS(=O)(=O)c4ccc(N)cc4)ccc3n2n1 under target or system SF-268 CNS: TGI reported as > 100 µM

The compound Cc1cccc(C)c1NC(=O)C(=O)C1C(=O)NC(=O)NC1=O , tested on SF-268 CNS, showed TGI of > 100 µM

The observed TGI for O=C1CCCCN1CCCCC#Cc1ccccc1C#Cc1ccc([N+](=O)[O-])cc1 when tested with SF-268 CNS stands at 27.3 µM

# value of TGI, SF-268 CNS, item COc1ccc(Nc2nc3c([nH]2)c(=O)n(C)c(=O)n3C)cc1 = > 10 µM

The reported TGI value, SF-268 CNS, for COc1ccc2cc(NC(=O)N/N=C\c3ccc(Cl)cc3)ccc2c1 reads > 100 µM

Entry Oc1ccc(CN2CCC(N3CCCCC3)CC2)c2cccnc12 under SF-268 CNS had TGI of > 100 µM

// returns TGI for CC(C)(C)OC(=O)N1CCc2c(sc3ncnc(N/N=C/c4cccc5ccccc45)c23)C1 with SF-268 CNS; value = > 100 µM

Measured TGI for this entry CCC(C(=O)c1ccc(OC)c(OC)c1)N(C(=O)C(F)(F)F)C(C)c1ccccc1 (centres undefined) on SF-268 CNS: > 100 µM

SF-268 CNS assay, compound Oc1ccc(NCc2nc3ccccc3[nH]2)cc1 , recorded TGI = > 100 µM

Response field TGI (SF-268 CNS) for item CC[C@@]1(O)C(=O)OCc2c1cc1n(c2=O)Cc2c-1nc1cc3c(cc1c2CCl)OCO3 : 4.62 µM

Simply: N#Cc1cc([N+](=O)[O-])ccc1NC(=O)C(=O)Nc1n[nH]c(N)n1 , SF-268 CNS, TGI = > 100 µM

Record Brc1cc2nn(-c3ccccc3)nc2c2nonc12 ; system SF-268 CNS; TGI = > 100 µM

The reported SF-268 CNS TGI of O=C(/C=C/c1c(O)ccc2ccccc12)c1cccc(O)c1 is > 100 µM

So the reported TGI for CCOC(=O)[C]1([Bi]([CH3])[CH3])N=NC(C(=O)OC)=C1C(=O)OC (centres undefined) , on SF-268 CNS, turned out to be 31.7 µM

Entry Nc1c(C(=O)c2ccc(Cl)cc2)[nH]c(NCc2ccccc2)c1C(=S)Nc1ccccc1 : TGI on SF-268 CNS = 8.44 µM

Bench note, SF-268 CNS: FC(F)(F)c1ccc2nc3n(c2c1)C(c1c(Cl)cccc1Cl)SC3 (centres undefined) , TGI reads 41.8 µM

// assay SF-268 CNS, entry C=C1CC(C)(c2ccc(Nc3nc4ccccc4c4occc34)cc2)OC1=O (centres undefined) , TGI value = 15.2 µM

# O=C1C(Cl)N(c2ccccc2[N+](=O)[O-])C1c1c[nH]c2ccccc12 (centres undefined) with SF-268 CNS: TGI is > 100 µM

* * *

Test system: LXFL 529 NSCLC
Protocol Text: NCI tumour cell line growth inhibition, 48 h
Measurement Name: TGI

Record COC(=O)/C=C/c1cc(OC)c(OC)c(OC)c1 ; system LXFL 529 NSCLC; TGI = > 100 µM

Measured on LXFL 529 NSCLC, COc1ccc(C2=CC3CCC2C3)cc1 (stereo not given) has a documented TGI of > 100 µM

Response field TGI (LXFL 529 NSCLC) for item CC(C)C(=O)NC(=S)Nc1ccc([N+](=O)[O-])cc1C#N : > 100 µM

Reported TGI (LXFL 529 NSCLC) for entry CC[CH2][Sn]([CH2]CC)([O]C(=O)c1cccnc1SC)[O][Sn]([CH2]CC)([CH2]CC)[O]C(=O)c1cccnc1SC is 0.155 µM

LXFL 529 NSCLC TGI of COC(=O)c1c/c(=N\NC(=O)CC(=O)Nc2ccccc2OC)c2ccccc2o1 is > 100 µM

TGI value, target or system LXFL 529 NSCLC, for CCCCN=C(NC#N)NCCCC : > 100 µM

Summary line: O=C1NC2OC(CO)C(O)C(O1)C2O (stereo not given) , LXFL 529 NSCLC, reported TGI = > 100 µM

TGI for LXFL 529 NSCLC with input O=c1/c(=C/c2ccco2)sc2nc3ccccc3n12 equals > 100 µM

Reading of TGI for CC(C)(C)C1CCC2(CC1)c1[nH]c3ccccc3c1C1(CCC(C(C)(C)C)CC1)c1[nH]c3ccccc3c12 (stereo not given) with LXFL 529 NSCLC: > 100 µM

Entry CSC(C1c2ccccc2N(c2ccc(C)cc2)C2=NC(=O)N(C)C(=O)C21Cl)S(=O)(=O)c1ccc(C)cc1 (stereo not given) ; assay system LXFL 529 NSCLC; TGI recorded at 42.1 µM
